Tested on: 786-0
Assay: NCI tumour cell line growth inhibition, 48 h
The source made the active and inactive calls. Rule as the data show it: active = GI50 up to about 1.1 µM and inactive = higher.
outcome_measure: GI50

Report measured GI50; entry is C1=C2C3=[N+](CCCCC3)CC2Cc2ccsc21 (stereo unspecified)
> 100 µM (inactive)

Report measured GI50; entry is O=C(/C=C/c1ccccc1)NC1C=Nc2ccc(Cl)cc2NC1=O (stereo unspecified)
23.2 µM (inactive)

Report measured GI50; entry is "CCSc1nc(N2CCCC2)s[s+]1.[O-][Cl+3]([O-])([O-])[O-]"
58.1 µM (inactive)

Report measured GI50; entry is "NCC(=O)NC1(c2cc3ccccc3s2)CCCCC1"
41.4 µM (inactive)

Report measured GI50; entry is "CN(C)c1ccc(/C=C2\N=C(c3ccccc3)N(/N=C3\C(=O)Nc4ccccc43)C2=O)cc1"
52.4 µM (inactive)

Report measured GI50; entry is "O=C(O)C(=Cc1ccnc2ccccc12)C(=O)O"
> 100 µM (inactive)
